Source listed as paper PMC6222789.

Below is a list of entries, each paired with its recorded Plasma Stability (% Remain, 2 h) Human value.
method-description: Plasma stability, human plasma
Type: in vitro ADME
test-context: 37 °C, 1 μM
Description: The plasma stability assay was performed by incubation of human or rat plasma with a test compound in a final concentration of 1 μM for 120 min at 37 °C. The incubation was terminated by addition of 40 μL of ice-cold acetonitrile and vortexing for 5 min. The precipitated proteins were removed by centrifugation at 14,000× g for 5 min at 4 °C. […] Percentages of the parent compound remaining were calculated by comparing peak areas using the Xcalibur software (version 1.6.1, Waltham, MA, USA).
Record the value in % Remain, omitting the unit from your answer.

// worked examples, Plasma Stability (% Remain, 2 h) Human included
[[record]]
compound = "COC(=O)c1c2c(c3ccccc3c1O)OC(C)(C)C=C2 [compound 1, mollugin]"
test_result = 92

[[record]]
compound = "COC(=O)c1c2c(c3ccc(C(F)(F)F)cc3c1O)OC(C)(C)C=C2 [14c]"
test_result = 97

[[record]]
compound = "CC1(C)C=Cc2c(C(=O)OCCN3CCOCC3)c(O)c3ccc(F)cc3c2O1 [15d]"
test_result = 94


Please look at the following compound next.
The compound listed as COC(=O)c1c2c(c3ccc(F)cc3c1O)OC(C)(C)C=C2 [14a] has a reported Plasma Stability (% Remain, 2 h) Human of 39.5

###

method-description: Metabolic stability, mouse liver microsomes
Assay type: in vitro ADME
test-context: 30 min, 1 μM
Experimental: Pooled human liver microsomes (150 donor) and dog, rat, mouse liver microsomes were obtained from BD Gentest Co. (Woburn, MA, USA). NADPH regeneration system was obtained from Promega. S-Mephenytoin, 4-hydroxymephenytoin, and 1’-hydroxymidazolam were purchased from Ultrafine Chemical Co. (Manchester, UK). All other chemicals and solvents were of the highest grade available. […] Percent of the parent compound remaining was calculated by comparing peak area.
Cut-off 10 % Remain on Metabolic Stability (% Remain, 30 min) Mouse, inclusive. At or above means 1; below means 0.

Example entries and their recorded answers appear below.
[[record]]
compound = "CNC(=O)c1c2c(c3ccccc3c1O)OC(C)(C)C=C2"
category = 0

[[record]]
compound = "CC1(C)C=Cc2c(C(=O)OCCN3CCOCC3)c(O)c3cc(C(F)(F)F)ccc3c2O1 [15c]"
category = 1

[[record]]
compound = "CN1CCN(CCOC(=O)c2c3c(c4ccccc4c2O)OC(C)(C)C=C3)CC1"
category = 0

[[record]]
compound = "COC(=O)c1c2c(c3ccccc3c1O)OC(C)(C)C=C2"
category = 1

[[record]]
compound = "CN1CCC[C@@H]1COC(=O)c1c2c(c3ccccc3c1O)OC(C)(C)C=C2"
category = 1


# input for lookup
Inquiry: Quick check, Metabolic Stability (% Remain, 30 min) Mouse >= 10 % Remain? CC1(C)C=Cc2c(C(=O)OCCCN3CCOCC3)c(O)c3ccccc3c2O1
Reply text: 1

###

method-description: Plasma stability, rat plasma
Assay type: in vitro ADME
test-context: 2 h, 37 °C, 1 μM
Below is a list of entries, each paired with its recorded Plasma Stability (% Remain, 2 h) Rat value.
Record the value in % Remain, omitting the unit from your answer.

[[record]]
compound = "COC(=O)c1c2c(c3ccc(C(F)(F)F)cc3c1O)OC(C)(C)C=C2 [14c]"
uom = "% Remain"
test_result = 10

[[record]]
compound = "CN1CCC[C@@H]1COC(=O)c1c2c(c3ccccc3c1O)OC(C)(C)C=C2 [6f]"
uom = "% Remain"
test_result = 99

[[record]]
compound = "Cc1ccc2c3c(c(C(=O)OCCN4CCOCC4)c(O)c2c1)C=CC(C)(C)O3 [15b]"
uom = "% Remain"
test_result = 55


The compound listed as CC1(C)C=Cc2c(C(=O)OCCN3CCOCC3)c(O)c3cc(C(F)(F)F)ccc3c2O1 [15c] has a reported Plasma Stability (% Remain, 2 h) Rat of 51

The compound listed as CN1CCN(CCOC(=O)c2c3c(c4ccccc4c2O)OC(C)(C)C=C3)CC1 [6h] has a reported Plasma Stability (% Remain, 2 h) Rat of 89

The compound listed as COC(=O)c1c2c(c3ccccc3c1O)OC(C)(C)C=C2 [compound 1, mollugin] has a reported Plasma Stability (% Remain, 2 h) Rat of 16

###

System: CYP3A4
method-description: CYP inhibition assay, CYP3A4
Assay type: in vitro ADME, human
test-context: human, liver microsomes, pH 7.4, probe midazolam (1′-hydroxylation); at 10 μM drug concentration; read-out: % inhibition of CYP 3A4
Description: All incubations were performed in duplicate, and the mean values were used for analysis. The assays of phenacetin O-deethylase, tolbutamide 4-hydroxylase, S-mephenytoin 4-hydroxylase, dextromethorphan O-demethylase and midazolam 1′-hydroxylase activities were determined as probe activities for CYP1A2, CYP2C9, CYP2C19, CYP2D6 and CYP3A, respectively, using cocktail incubation and tandem mass spectrometry. […]
endpoint: inhibition at 15 min, 10 μM

The molecule listed as CC1(C)C=Cc2c(C(=O)OCCN3CCOCC3)c(O)c3cc(C(F)(F)F)ccc3c2O1 [15c] has a reported inhibition at 15 min, 10 μM of < 50%

###

Below is a list of entries, each paired with its recorded inhibition at 10 µM value.
Test system: TNF-α-induced adhesion of U937 monocytic cells to HT-29 cells
method-description: TNF-α-induced colonic epithelial cell adhesion assay
Assay type: cell-based, human
test-context: Homo sapiens, Epithelial cell, 10 uM; U937 adhesion to HT-29 cells, TNF-α-induced
Record the value in %, omitting the unit from your answer.

// worked examples, inhibition at 10 µM included
[[record]]
compound = "CC1(C)C=Cc2c(C(=O)OCCN3CCOCC3)c(O)c3ccccc3c2O1"
uom = "%"
test_result = 46.3

[[record]]
compound = "CC1(C)C=Cc2c(C(=O)OCCCN3CCOCC3)c(O)c3ccccc3c2O1"
uom = "%"
test_result = 40.1

[[record]]
compound = "CNC(=O)c1c2c(c3ccccc3c1O)OC(C)(C)C=C2"
uom = "%"
test_result = 45.4

[[record]]
compound = "CC1(C)C=Cc2c(C(=O)OCCN3CCCC3)c(O)c3ccccc3c2O1"
uom = "%"
test_result = 39.7

[[record]]
compound = "CC1(C)C=Cc2c(C(=O)OCCN3CCOCC3)c(O)c3cc(C(F)(F)F)ccc3c2O1 [15c]"
uom = "%"
test_result = 46


Please look at the following compound next.
The compound listed as CN1CCC[C@@H]1COC(=O)c1c2c(c3ccccc3c1O)OC(C)(C)C=C2 has a reported inhibition at 10 µM of 48.3

###

method-description: Metabolic stability, rat liver microsomes
Assay type: in vitro ADME
test-context: 30 min, 1 μM
endpoint: Metabolic Stability (% Remain, 30 min) Rat

// worked examples, Metabolic Stability (% Remain, 30 min) Rat included
[[record]]
compound = "COC(=O)c1c2c(c3ccc(F)cc3c1O)OC(C)(C)C=C2 [14a]"
test_result = "78 % Remain"

[[record]]
compound = "COC(=O)c1c2c(c3ccc(C(F)(F)F)cc3c1O)OC(C)(C)C=C2 [14c]"
test_result = "90 % Remain"

[[record]]
compound = "CC1(C)C=Cc2c(C(=O)OCCN3CCOCC3)c(O)c3ccccc3c2O1 [6d]"
test_result = "20 % Remain"

[[record]]
compound = "CN1CCN(CCOC(=O)c2c3c(c4ccccc4c2O)OC(C)(C)C=C3)CC1 [6h]"
test_result = "23 % Remain"

[[record]]
compound = "CN1CCC[C@@H]1COC(=O)c1c2c(c3ccccc3c1O)OC(C)(C)C=C2 [6f]"
test_result = "13 % Remain"

[[record]]
compound = "Cc1ccc2c3c(c(C(=O)OCCN4CCOCC4)c(O)c2c1)C=CC(C)(C)O3 [15b]"
test_result = "9 % Remain"

[[record]]
compound = "COC(=O)c1c2c(c3ccc(C)cc3c1O)OC(C)(C)C=C2 [14b]"
test_result = "51 % Remain"

[[record]]
compound = "CN(C)CCOC(=O)c1c2c(c3ccccc3c1O)OC(C)(C)C=C2 [6a]"
test_result = "2 % Remain"

[[record]]
compound = "CC1(C)C=Cc2c(C(=O)OCCN3CCOCC3)c(O)c3cc(F)ccc3c2O1 [15a]"
test_result = "9 % Remain"


Please look at the following compound next.
The compound listed as CC1(C)C=Cc2c(C(=O)OCCCN3CCOCC3)c(O)c3ccccc3c2O1 [6e] has a reported Metabolic Stability (% Remain, 30 min) Rat of 16 % Remain

###

system: CYP2C19 (Homo sapiens, UniProt P33261)
Construct: from tissue; host or cells: human liver microsomes
Sequence (P33261 whole entry): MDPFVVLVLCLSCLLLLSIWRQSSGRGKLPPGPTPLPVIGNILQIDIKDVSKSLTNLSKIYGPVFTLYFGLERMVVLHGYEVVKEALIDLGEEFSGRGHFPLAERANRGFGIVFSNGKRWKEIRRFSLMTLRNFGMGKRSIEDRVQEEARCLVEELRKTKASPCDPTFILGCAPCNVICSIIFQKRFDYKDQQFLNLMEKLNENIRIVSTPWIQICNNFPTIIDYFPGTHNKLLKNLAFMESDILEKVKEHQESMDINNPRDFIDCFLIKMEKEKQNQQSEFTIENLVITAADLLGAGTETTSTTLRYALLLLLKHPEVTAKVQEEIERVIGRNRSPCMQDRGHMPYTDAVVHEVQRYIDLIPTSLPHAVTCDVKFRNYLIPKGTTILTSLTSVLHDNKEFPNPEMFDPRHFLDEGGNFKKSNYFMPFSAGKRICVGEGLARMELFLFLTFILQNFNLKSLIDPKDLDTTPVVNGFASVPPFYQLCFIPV
method-description: CYP inhibition assay, CYP2C19
Format: in vitro ADME
test-context: human, liver microsomes, pH 7.4, probe S-mephenytoin (4-hydroxylation); at 10 μM drug concentration; read-out: % inhibition of CYP 2C19
endpoint: inhibition at 15 min, 10 μM

The molecule listed as CC1(C)C=Cc2c(C(=O)OCCN3CCOCC3)c(O)c3cc(C(F)(F)F)ccc3c2O1 [15c] has a reported inhibition at 15 min, 10 μM of < 50%
